# System: HEK293 cells
# Protocol Details: HEK293 cell viability, CellTiter-Glo assay
# Type: cell-based, Human
# Condition Parameters: tested up to 100 μM
Result Type: toxicity in HEK293 cells (in words)

> print(dat)
                                   molecule     observed.value
1  O=C1NN(c2ccc(Cl)cc2)C(=O)/C1=C\c1ccc([N+](=O)[O-])o1 [Compound 4057]              toxic
2  COC(=O)c1ccc(N2NC(=O)/C(=C/c3ccco3)C2=O)cc1 [Compound 8112]          not toxic
3  CCOC(=O)c1ccc(N2NC(=O)/C(=C/c3ccco3)C2=O)cc1 [Compound 6303]          not toxic
4  CCOC(=O)c1ccc(N2NC(=O)/C(=C/c3ccc([N+](=O)[O-])o3)C2=O)cc1 [Compound 0855, reference compound]              toxic
5  O=C1NN(c2cc(Cl)cc(Cl)c2)C(=O)/C1=C1\Nc2ccccc2C1=O [Compound 4976]  moderate toxicity
6  CCOC(=O)c1ccc(N2NC(=O)/C(=C\c3ccccc3)C2=O)cc1 [Compound 3670]          not toxic
7  O=C1NN(c2ccccc2)C(=O)/C1=C\c1cccc(C(F)(F)F)c1 [Compound 5129]  moderate toxicity
8  CCOC(=O)c1ccc(N2NC(=O)/C(=C/c3ccc([N+](=O)[O-])o3)C2=O)cc1 [Compound 9731, reference compound]              toxic
